Task for the reader: assign each of the following molecules its reported GI50.
tested on: ACHN; test: NCI tumour cell line growth inhibition, 48 h
Calls of active or inactive are those of the source. No stated cut-off is given here; in the data, active = GI50 up to about 1.1 µM and inactive = higher.

Previously resolved entries follow.
CC(=O)NNc1nc(C)c(C(=O)NNC(=O)C(=O)Nc2ccc([N+](=O)[O-])cc2[N+](=O)[O-])s1 | > 100 µM (inactive)
C=CCN(N=O)C(=O)N(CCCCC(NC(C)=O)C(=O)NCc1ccccc1)Cc1ccccc1 (stereo not given) | 42.9 µM (inactive)
CC1C(OS(=O)(=O)c2ccc3nc(S)sc3c2)CC2C3(C)CCC2(C(C)C(=O)O)C(O)C13 (stereo not given) | 15.9 µM (inactive)
CC(C)(C)C(=O)O[C@@H]1COC2C(O)COC21 (stereo not given in full) | > 100 µM (inactive)

Please look at the following molecule next.
Request: Would you kindly share the measured GI50 for COc1cc2c(cc1OC)C1=Cc3ccc(OC)c(OC)c3C(C#N)N1CC2 (stereo not given) ?
Result: > 100 µM (inactive)
